Data origin, for the record: patent US9371374

targetEntity: biotinylated HCV core peptide 134-154 (Peptide 1) (HCV-1)
runDescription: EIA, captured mAb
Entries whose Reactivity (OD492) is below 0.09 OD take Condition met; entries at or above 0.09 OD take Condition not met.

[Q] Regarding HCV 208B-826 (antibody, V domains shown) VH: DVQLVESGGGLVQAGGSRKLSCAASGFPFSSFGMHWVRQAPEKGLEWVASISSRTSKIYYADNLKGRFTISRDNPKNTLFLQMTSLGSEDTAMYYCVRSVFGNSYWFFDVWGAGTTVTVSS VL: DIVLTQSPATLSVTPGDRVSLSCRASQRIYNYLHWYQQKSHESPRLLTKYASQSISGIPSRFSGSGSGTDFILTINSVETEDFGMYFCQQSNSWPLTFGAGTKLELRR , kindly confirm whether its Reactivity (OD492) is beneath 0.09 OD.
[A] Condition not met

[Q] Regarding HCV 208A-830 (antibody, V domains shown) VH: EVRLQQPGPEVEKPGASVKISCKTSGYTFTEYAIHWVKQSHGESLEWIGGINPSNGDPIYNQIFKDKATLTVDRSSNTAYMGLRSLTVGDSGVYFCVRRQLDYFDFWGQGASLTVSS VL: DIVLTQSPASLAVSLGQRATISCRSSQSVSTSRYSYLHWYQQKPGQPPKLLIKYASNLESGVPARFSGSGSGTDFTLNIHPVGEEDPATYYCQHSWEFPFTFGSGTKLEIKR , kindly confirm whether its Reactivity (OD492) is beneath 0.09 OD.
[A] Condition met

[Q] Regarding HCV 208A-222 (antibody, V domains shown) VH: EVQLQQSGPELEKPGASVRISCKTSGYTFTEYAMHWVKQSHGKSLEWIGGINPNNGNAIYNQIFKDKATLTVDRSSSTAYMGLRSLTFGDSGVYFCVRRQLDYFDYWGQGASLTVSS VL: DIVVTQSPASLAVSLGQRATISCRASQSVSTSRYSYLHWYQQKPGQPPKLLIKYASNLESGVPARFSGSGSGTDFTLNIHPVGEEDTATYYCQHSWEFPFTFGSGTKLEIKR , kindly confirm whether its Reactivity (OD492) is beneath 0.09 OD.
[A] Condition met

[Q] Regarding HCV 208B-353 (antibody, V domains shown) VH: EVQLVESGGDLVKPGGSLKLSCAASGFTFNHYGMSWVRQPPDKRLEWVATISSGGGYTYYPDSVKGRFTISRDNAKDTLSLQMSSLRSGDTAVYYCASLYGSLFAYWGQGTLVTVSA VL: DIVMTQSQKFMSTTVGDRVRVTCKASQNVGTAVAWYQQKPGQSPKLLIYSASNRYTGVPDRFTGSGSGTDFTLTITNMQSEDLADYFCQQYSTYPLTFGSGAKLEIKR , kindly confirm whether its Reactivity (OD492) is beneath 0.09 OD.
[A] Condition met

[Q] Regarding HCV 208A-1064 (antibody, V domains shown) VH: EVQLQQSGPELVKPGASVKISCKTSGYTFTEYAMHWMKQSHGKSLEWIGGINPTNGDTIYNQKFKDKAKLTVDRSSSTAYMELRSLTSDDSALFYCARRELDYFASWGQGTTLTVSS VL: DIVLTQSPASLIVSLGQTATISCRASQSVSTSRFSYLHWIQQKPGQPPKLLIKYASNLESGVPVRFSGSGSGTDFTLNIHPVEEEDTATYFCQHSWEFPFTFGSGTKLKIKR , kindly confirm whether its Reactivity (OD492) is beneath 0.09 OD.
[A] Condition not met

[Q] Regarding HCV 208B-327 (antibody, V domains shown) VH: EVQLVESGGGLVKPGGSLKLSCAASGFTFSDSYMYWVRQTPDQRLEWVATISDGGSYTFYPDSVKGRFTISRDNAQNNLYLQMSSLKSEDTAMYYCASPHAGYFGWFAYWGRGTLVTVSA VL: DIVMTQAAFSNPVTPGTSVSISCRSSKSLLHSNGITYLYWYLQKPGQSPQLLIYQMSKIASGVPDRFRSSGSGTDFTLRISRVEAADVGVYYCAQNLELPWTFGGGTKLEIKR , kindly confirm whether its Reactivity (OD492) is beneath 0.09 OD.
[A] Condition met

[Q] Regarding HCV 208B-672 (antibody, V domains shown) VH: EVKLVESGGSLVQPGGSLKLSCAASGFNFNTYAMSWVRQTPEKRLEWVAYISNGGGNTYYVDTVKGRFTISRDNAKNTLYLRMSSLKSEDTAMYYCARHGLYWGYSMDYWGQGTSVTVSS VL: DIQMTQSPSSLSASLGERVSLTCRASQDIGGSINWLQQEPDGTIKRLIYATSSLDSGVPKRFSGSRSGSDYSLTISSLESEDFVDYYCLQYASSPPTFGGGTKLEIKR , kindly confirm whether its Reactivity (OD492) is beneath 0.09 OD.
[A] Condition met

[Q] Regarding HCV 208A-352 (antibody, V domains shown) VH: QGQMQQSGAELVKPGASVKLSCKTSGFTFSSSFISWLKQKPGQSLEWIAWIYAGTGNTNYNQKFTDKAQLTVDTSSSTAYMQFSSLTTEDSAIYYCAISGTGFTYWGQGTLVTVSA VL: DVLMAQTPLSLPVTLGDQASISCRSSQSLVHSNGNTYLEWFLQKPGQSPKLLIYNVSNRFSGVPDRFSGSGSGTDFTLKISRVEAEDLGVYYCFQGSHVPLTFGSGTKLEIKR , kindly confirm whether its Reactivity (OD492) is beneath 0.09 OD.
[A] Condition not met
